- Tested on: K98450-129-R-PDC complex spheroid growth, percent test/control
- measurement-notes: Anticancer human tumor K98450-129-R-PDC patient-derived colon adenocarcinoma cell line growth inhibition [RAS]
- condition-description: second compound 0.00949 µM; first compound 0.0949 µM; stronger effect = lower value
measured-parameter: viability, T/C (%)

* CC1(C)CCC(Nc2ncc(C(F)(F)F)c(-c3c[nH]c4c(P(C)(C)=O)c(C#N)ccc34)n2)CN1 (centres undefined) + CCn1c(-c2cc(N3CCN(C)CC3)cnc2C(C)OC)c2c3cc(ccc31)-c1csc(n1)CC(NC(=O)C1CC1C)C(=O)N1CCCC(N1)C(=O)OCC(C)(C)C2 | 81.7
* CCc1c2c(nc3ccc(O)cc13)-c1cc3c(c(=O)n1C2)COC(=O)[C@]3(O)CC + CCn1c(-c2cc(N3CCN(C)CC3)cnc2C(C)OC)c2c3cc(ccc31)-c1csc(n1)CC(NC(=O)C1CC1C)C(=O)N1CCCC(N1)C(=O)OCC(C)(C)C2 | 29.3
* CC1(C)CCC(Nc2ncc(C(F)(F)F)c(-c3c[nH]c4c(P(C)(C)=O)c(C#N)ccc34)n2)CN1 (centres undefined) + CCn1c(-c2cccnc2C(C)OC)c2c3cc(ccc31)N1CCOC(CC(NC(=O)C(C(C)C)N(C)C(=O)C3(F)CCN(C(=O)C#CC(C)(C)N(C)C)CC3)C(=O)N3CCCC(N3)C(=O)OCC(C)(C)C2)C1 | 51.8
* CCc1c2c(nc3ccc(O)cc13)-c1cc3c(c(=O)n1C2)COC(=O)[C@]3(O)CC + CCn1c(-c2cccnc2C(C)OC)c2c3cc(ccc31)N1CCOC(CC(NC(=O)C(C(C)C)N(C)C(=O)C3(F)CCN(C(=O)C#CC(C)(C)N(C)C)CC3)C(=O)N3CCCC(N3)C(=O)OCC(C)(C)C2)C1 | 16.9

* * *

- Tested on: K98450-129-R-PDC complex spheroid growth, percent test/control
- measurement-notes: Anticancer human tumor K98450-129-R-PDC cell line growth inhibition [RAS];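 also: spheroids exposed to agents for seven days before the viability readout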
- condition-description: curve of first compound; second compound 0.01 µM
measured-parameter: IC50 (nM)

- CC1(O)CCCC1n1c(=O)c(C(F)F)cc2cnc(NC3CCN(S(C)(=O)=O)CC3)nc21 (stereo not drawn) + C=CC(=O)N1CCN(c2nc(OCC3CCCN3C)nc3c(F)c(-c4nc(N)cc(C)c4C(F)(F)F)c(Cl)cc23)C(C)C1: 2760
- CC1(C)CCC(Nc2ncc(C(F)(F)F)c(-c3c[nH]c4c(P(C)(C)=O)c(C#N)ccc34)n2)CN1 (stereo not drawn) + C=CC(=O)N1CCN(c2nc(OCC3CCCN3C)nc3c(F)c(-c4nc(N)cc(C)c4C(F)(F)F)c(Cl)cc23)C(C)C1: 270
- CCc1c2c(nc3ccc(O)cc13)-c1cc3c(c(=O)n1C2)COC(=O)[C@]3(O)CC + C=CC(=O)N1CCN(c2nc(OCC3CCCN3C)nc3c(F)c(-c4nc(N)cc(C)c4C(F)(F)F)c(Cl)cc23)C(C)C1: 16.6

* * *

- System: K98450-129-R-PDC complex spheroid growth, percent test/control
- measurement-notes: Anticancer human tumor K98450-129-R-PDC cell line growth inhibition [RAS];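 also: spheroids exposed to agents for seven days before the viability readout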;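 as to viability, T/C: luminescence used as a proxy for viable cell amount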
- condition-description: second compound 0.000949 µM; first compound 0.1 µM; stronger effect = lower value
measured-parameter: viability, T/C (%)

- CCN1CCN(Cc2ccc(Nc3ncc(F)c(-c4cc(F)c5nc(C)n(C(C)C)c5c4)n3)nc2)CC1 + CCn1c(-c2cc(N3CCN(C)CC3)cnc2C(C)OC)c2c3cc(ccc31)-c1csc(n1)CC(NC(=O)C1CC1C)C(=O)N1CCCC(N1)C(=O)OCC(C)(C)C2: 80.8
- Cc1nc(N2CCC3(CC2)COC(C)C3N)c(CO)nc1Sc1ccnc(N)c1Cl (centres undefined) + CCn1c(-c2cc(N3CCN(C)CC3)cnc2C(C)OC)c2c3cc(ccc31)-c1csc(n1)CC(NC(=O)C1CC1C)C(=O)N1CCCC(N1)C(=O)OCC(C)(C)C2: 71.3
- C=CC(=O)Nc1cc(Nc2nccc(-c3cn(C)c4ccccc34)n2)c(OC)cc1N(C)CCN(C)C + CCn1c(-c2cc(N3CCN(C)CC3)cnc2C(C)OC)c2c3cc(ccc31)-c1csc(n1)CC(NC(=O)C1CC1C)C(=O)N1CCCC(N1)C(=O)OCC(C)(C)C2: 73.6
- C[C@@H](NC(=O)c1ncnc(N)c1Cl)c1ncc(C(=O)Nc2cc(C(F)(F)F)c(Cl)cn2)s1 + CCn1c(-c2cccnc2C(C)OC)c2c3cc(ccc31)N1CCOC(CC(NC(=O)C(C(C)C)N(C)C(=O)C3(F)CCN(C(=O)C#CC(C)(C)N(C)C)CC3)C(=O)N3CCCC(N3)C(=O)OCC(C)(C)C2)C1: 87.2

* * *

- Test system: K98450-129-R-PDC complex spheroid growth, percent test/control
- measurement-notes: Anticancer human tumor K98450-129-R-PDC cell line growth inhibition [RAS];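 also: spheroids exposed to agents for seven days before the viability readout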
- condition-description: curve of first compound; second compound 0.000949 µM
measured-parameter: IC50 (nM)

* CC(C)n1nc(-c2ccc3oc(N)nc3c2)c2c(N)ncnc21 + CCn1c(-c2cccnc2C(C)OC)c2c3cc(ccc31)N1CCOC(CC(NC(=O)C(C(C)C)N(C)C(=O)C3(F)CCN(C(=O)C#CC(C)(C)N(C)C)CC3)C(=O)N3CCCC(N3)C(=O)OCC(C)(C)C2)C1 | 46.3

* * *

- System: K98450-129-R-PDC complex spheroid growth, percent test/control
- measurement-notes: Anticancer human tumor K98450-129-R-PDC cell line growth inhibition [RAS];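 also: spheroids exposed to agents for seven days before the viability readout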
- condition-description: curve of first compound; second compound 0.316 µM
measured-parameter: IC50

* CC(C)n1nc(-c2ccc3oc(N)nc3c2)c2c(N)ncnc21 + C#Cc1c(F)ccc2cc(O)cc(-c3ncc4c(N5CC6CCC(C5)N6)nc(OCC56CCCN5CC(F)C6)nc4c3F)c12 | > 100 nM
* CC(C)NCC(C(=O)N1CCN(c2ncnc3c2C(C)CC3O)CC1)c1ccc(Cl)cc1 (stereo not given) + C#Cc1c(F)ccc2cc(O)cc(-c3ncc4c(N5CC6CCC(C5)N6)nc(OCC56CCCN5CC(F)C6)nc4c3F)c12 | > 10000 nM
* Cc1nc(N2CCC3(CC2)COC(C)C3N)c(CO)nc1Sc1ccnc(N)c1Cl (stereo not given) + C#Cc1c(F)ccc2cc(O)cc(-c3ncc4c(N5CC6CCC(C5)N6)nc(OCC56CCCN5CC(F)C6)nc4c3F)c12 | 2240 nM
* CC1(O)CCCC1n1c(=O)c(C(F)F)cc2cnc(NC3CCN(S(C)(=O)=O)CC3)nc21 (stereo not given) + C#Cc1c(F)ccc2cc(O)cc(-c3ncc4c(N5CC6CCC(C5)N6)nc(OCC56CCCN5CC(F)C6)nc4c3F)c12 | > 10000 nM
* O=C(c1ccc(F)c(F)c1Nc1ccc(I)cc1F)N1CC(O)([C@@H]2CCCCN2)C1 + C=CC(=O)N1CCN(c2nc(OCC3CCCN3C)nc3c(F)c(-c4nc(N)cc(C)c4C(F)(F)F)c(Cl)cc23)C(C)C1 | < 3.16 nM

* * *

Here the recorded viability, T/C is given for each entry.
- Test system: K98450-129-R-PDC complex spheroid growth, percent test/control
- measurement-notes: Anticancer human tumor K98450-129-R-PDC cell line growth inhibition [RAS];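 also: spheroids exposed to agents for seven days before the viability readout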;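 as to viability, T/C: luminescence used as a proxy for viable cell amount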
- condition-description: second compound 3.16 µM; first compound 0.00316 µM; stronger effect = lower value
measured-parameter: viability, T/C

• CC(C)n1nc(-c2ccc3oc(N)nc3c2)c2c(N)ncnc21 + C#Cc1c(F)ccc2cc(O)cc(-c3ncc4c(N5CC6CCC(C5)N6)nc(OCC56CCCN5CC(F)C6)nc4c3F)c12 = 92%
• O=C(c1ccc(F)c(F)c1Nc1ccc(I)cc1F)N1CC(O)([C@@H]2CCCCN2)C1 + C#Cc1c(F)ccc2cc(O)cc(-c3ncc4c(N5CC6CCC(C5)N6)nc(OCC56CCCN5CC(F)C6)nc4c3F)c12 = 97%
• C=CC(=O)Nc1cc(Nc2nccc(-c3cn(C)c4ccccc34)n2)c(OC)cc1N(C)CCN(C)C + C#Cc1c(F)ccc2cc(O)cc(-c3ncc4c(N5CC6CCC(C5)N6)nc(OCC56CCCN5CC(F)C6)nc4c3F)c12 = 93.7%

* * *

Here the recorded pIC50 is given for each entry.
- Tested on: K98450-129-R-PDC complex spheroid growth, percent test/control
- measurement-notes: Anticancer human tumor K98450-129-R-PDC cell line growth inhibition [RAS];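 also: spheroids exposed to agents for seven days before the viability readout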
- condition-description: curve of first compound; second compound 0.316 µM
pIC50: −log10 of the molar value.
measured-parameter: pIC50

• NC1c2ccccc2OC12CCN(c1cnc3c(N4CCCc5ncccc54)n[nH]c3n1)CC2 (stereo not drawn) + C=CC(=O)N1CCN(c2nc(OCC3CCCN3C)nc3c(F)c(-c4nc(N)cc(C)c4C(F)(F)F)c(Cl)cc23)C(C)C1 = > 7.50
• C[C@@H](NC(=O)c1ncnc(N)c1Cl)c1ncc(C(=O)Nc2cc(C(F)(F)F)c(Cl)cn2)s1 + C=CC(=O)N1CCN(c2nc(OCC3CCCN3C)nc3c(F)c(-c4nc(N)cc(C)c4C(F)(F)F)c(Cl)cc23)C(C)C1 = > 7.50
• CC(C)NCC(C(=O)N1CCN(c2ncnc3c2C(C)CC3O)CC1)c1ccc(Cl)cc1 (stereo not drawn) + C=CC(=O)N1CCN(c2nc(OCC3CCCN3C)nc3c(F)c(-c4nc(N)cc(C)c4C(F)(F)F)c(Cl)cc23)C(C)C1 = > 7.50
